Assay: Drug level in urine of beagle dog treated with [14C]PF-00734200 at 5 mg/kg, po administered as single dose by LC-MS/MS method
Assay type: ADME, organism-based, Canis lupus familiaris
Design: dose 5 mg/kg, route oral
Conditions: in vivo
READOUT: Drug uptake (%)

As a guide, the following entries are already answered.
SMILES STR: O=C(O)[C@H]1O[C@@H](Oc2cnc(N3CCN([C@@H]4CN[C@H](C(=O)N5CCC(F)(F)C5)C4)CC3)nc2)[C@H](O)[C@@H](O)[C@@H]1O
Drug uptake / %: 1

SMILES STR: O=C([C@@H]1C[C@H](N2CCN(c3ncccn3)CC2)CN1)N1CCC(F)(F)C1
Drug uptake / %: 25.6

SMILES STR: O=C(O)[C@H]1O[C@@H](OC(=O)N2C[C@@H](N3CCN(c4ncccn4)CC3)C[C@H]2C(=O)N2CCC(F)(F)C2)[C@H](O)[C@@H](O)[C@@H]1O
Drug uptake / %: 1.6

(P) O=C([C@@H]1C[C@H](N2CCN(c3ncc(O)cn3)CC2)CN1)N1CCC(F)(F)C1
(Q) NC(=O)N1C[C@@H](N2CCN(c3ncc(O)cn3)CC2)C[C@H]1C(=O)N1CCC(F)(F)C1
(R) N=C(N)N1CCN([C@@H]2CN[C@H](C(=O)N3CCC(F)(F)C3)C2)CC1
(S) O=C([C@@H]1C[C@H](N2CCN(c3ncc(OS(=O)(=O)O)cn3)CC2)CN1)N1CCC(F)(F)C1
## Task Hey, quick one: sort these by Drug uptake, largest value first please. Answer by naming the labels in the order asked.
## Result P, S, R, Q

* * *

Experiment: Drug level in feces of Sprague-Dawley rat treated with [14C]PF-00734200 at 5 mg/kg, po administered as single dose by LC-MS/MS method
Format: ADME, organism-based
Parameters: dose 5 mg/kg, route oral
Conditions: in vivo
READOUT: Drug uptake (%)

As a guide, the following entries are already answered.
SMILES STR: N=C(N)N1CCN([C@@H]2CN[C@H](C(=O)N3CCC(F)(F)C3)C2)CC1
REPORTED MEASUREMENT: 17.8
--
SMILES STR: N=C(N)N1CCN([C@H]2C[C@@H](C(=O)N3CCC(F)(F)C3)N(C=O)C2)CC1
REPORTED MEASUREMENT: 0.1
--
SMILES STR: O=CN1C[C@@H](N2CCN(c3ncc(O)cn3)CC2)C[C@H]1C(=O)N1CCC(F)(F)C1
REPORTED MEASUREMENT: 5.5
--
SMILES STR: O=C(O)[C@@H]1C[C@H](N2CCN(c3ncccn3)CC2)CN1
REPORTED MEASUREMENT: 2.3

(A) O=C([C@@H]1C[C@H](N2CCN(c3ncccn3)CC2)CN1)N1CCC(F)(F)C1
(B) O=C([C@@H]1C[C@H](N2CCN(c3ncc(O)cn3)CC2)CN1)N1CCC(F)(F)C1
## Task # returns the entry with the larger Drug uptake; inputs A and B Write down the label of the entry you select.
## Result B
(B: 32.3%, A: 1.1%)

* * *

Test system: Plasma
Assay: Drug level in beagle dog plasma treated with [14C]PF-00734200 at 5 mg/kg, po administered as single dose by LC-MS/MS method
Assay type: ADME, organism-based, Canis lupus familiaris
Design: dose 5 mg/kg, route oral
Settings: in vivo
READOUT: Drug uptake (%)

As a guide, the following entries are already answered.
SMILES STR: O=C(O)[C@H]1O[C@@H](OC(=O)N2C[C@@H](N3CCN(c4ncccn4)CC3)C[C@H]2C(=O)N2CCC(F)(F)C2)[C@H](O)[C@@H](O)[C@@H]1O
READOUT: Drug uptake
UOM: %
REPORTED MEASUREMENT: 1.5

SMILES STR: O=C([C@@H]1C[C@H](N2CCN(c3ncc(O)cn3)CC2)CN1)N1CCC(F)(F)C1
READOUT: Drug uptake
UOM: %
REPORTED MEASUREMENT: 13.7

SMILES STR: c1cnc(N2CCNCC2)nc1
READOUT: Drug uptake
UOM: %
REPORTED MEASUREMENT: 0.7

SMILES STR: O=C(O)[C@H]1O[C@@H](OC(=O)N2C[C@@H](N3CCN(c4ncc(O)cn4)CC3)C[C@H]2C(=O)N2CCC(F)(F)C2)[C@H](O)[C@@H](O)[C@@H]1O
READOUT: Drug uptake
UOM: %
REPORTED MEASUREMENT: 1.8

SMILES STR: N=C(N)N1CCN([C@@H]2CN[C@H](C(=O)N3CCC(F)(F)C3)C2)CC1
READOUT: Drug uptake
UOM: %
REPORTED MEASUREMENT: 0.8

SMILES STR: O=C([C@@H]1C[C@H](N2CCN(c3ncccn3)CC2)CN1)N1CCC(F)(F)C1
READOUT: Drug uptake
UOM: %
REPORTED MEASUREMENT: 80.1

SMILES STR: O=C([C@@H]1C[C@H](N2CCN(c3ncc(OS(=O)(=O)O)cn3)CC2)CN1)N1CCC(F)(F)C1
READOUT: Drug uptake
UOM: %
REPORTED MEASUREMENT: 1.8

(a) O=C(O)[C@H]1O[C@@H](Oc2cnc(N3CCN([C@@H]4CN[C@H](C(=O)N5CCC(F)(F)C5)C4)CC3)nc2)[C@H](O)[C@@H](O)[C@@H]1O
(b) O=C(O)[C@@H]1C[C@H](N2CCN(c3ncccn3)CC2)CN1
## Task # returns the entry with the larger Drug uptake; inputs a and b Write down the label of the entry you select.
## Result b
(b: 1%, a: 0.4%)
